Please go through the items and note down their log10 LC50.
Test system: Trypanosoma cruzi
Assay: Trypanocidal activity against trypomastigote stage of Trypanosoma cruzi INC-5 infected in NIH mouse blood assessed as parasite lysis after 24 hrs by optical microscopic method
Type: functional
Settings: INC-5, Blood
Please interpret these as log10 of LC50 where LC50 is in µM.

Molecule: Cc1ccc(C(CC(=O)O)N2C(=O)c3ccc(C)cc3C2=O)cc1 (configuration not stated)
Endpoint Value: 1.64
--
Molecule: NC(CC(=O)O)c1ccco1 (configuration not stated)
Endpoint Value: 2.36
--
Molecule: COc1ccc(C(CC(=O)O)N2C(=O)c3ccc(C)cc3C2=O)cc1 (configuration not stated)
Endpoint Value: 1.77
--
Molecule: O=C(O)CC(c1ccc([N+](=O)[O-])cc1)N1C(=O)c2ccccc2C1=O (configuration not stated)
Endpoint Value: 2.08
--
Molecule: CCc1ccc(C(N)CC(=O)O)cc1 (configuration not stated)
Endpoint Value: 2.42
--
Molecule: O=C(O)CC(c1ccco1)N1C(=O)c2ccc(C(=O)O)cc2C1=O (configuration not stated)
Endpoint Value: 2.01

Give log10 LC50 for each listed item.
1. Cc1ccc(C(N)CC(=O)O)cc1 (configuration not stated)
2. NC(CC(=O)O)c1ccc2ccccc2c1 (configuration not stated)

1. 2.46
2. 2.01

Give log10 LC50 for each listed item.
1. Cc1ccc2c(c1)C(=O)N(C(CC(=O)O)c1ccc(Br)cc1)C2=O (configuration not stated)
2. Cc1ccc2c(c1)C(=O)N(C(CC(=O)O)c1ccc(F)cc1)C2=O (configuration not stated)
3. O=C(O)CC(c1ccc(F)cc1)N1C(=O)c2ccccc2C1=O (configuration not stated)
4. O=C(Cn1ccnc1[N+](=O)[O-])NCc1ccccc1

1.36
1.87
1.91
2.09

---

Please go through the items and note down their LC50.
System: Trypanosoma cruzi
Test: Trypanocidal activity against trypomastigote stage of Trypanosoma cruzi INC-5 infected in NIH mouse blood assessed as parasite lysis after 24 hrs by optical microscopic method
Assay type: functional
Details: INC-5, Blood
One number for each entry, in µM.

Give LC50 for each listed item.
1. NC(CC(=O)O)c1ccc(O)cc1 (stereo not drawn)
2. Cc1ccc(C(CC(=O)O)N2C(=O)c3ccc(C(=O)O)cc3C2=O)cc1 (stereo not drawn)

127
39.9

---

Please go through the items and note down their LC50.
Test system: Trypanosoma cruzi
Assay: Trypanocidal activity against trypomastigote stage of Trypanosoma cruzi INC-5 infected in NIH mouse blood assessed as parasite lysis after 24 hrs by optical microscopic method
Format: functional
Details: INC-5, Blood
Give bare numbers, in µM.

Give LC50 for each listed item.
1. Cc1ccc2c(c1)C(=O)N(C(CC(=O)O)c1ccc3ccccc3c1)C2=O (stereo unspecified)
2. COc1ccc(C(N)CC(=O)O)cc1 (stereo unspecified)
3. O=C(O)CC(c1ccc2ccccc2c1)N1C(=O)c2ccccc2C1=O (stereo unspecified)
4. Cc1ccc2c(c1)C(=O)N(C(CC(=O)O)c1ccc(Cl)cc1)C2=O (stereo unspecified)
5. O=C(O)CC(c1ccc(O)cc1)N1C(=O)c2ccccc2C1=O (stereo unspecified)

[46.2, 256, 117, 52, 91]

Given NC(CC(=O)O)c1ccc([N+](=O)[O-])cc1 (stereo unspecified) , respond with its LC50.
249

Cited source: ChEMBL document CHEMBL4152334
